Data provenance: patent US20120095024A1

# pEC50 per record follows
# System: MCF7 cells
# protocolDetails: Cell proliferation assay (ATPlite), MCF-7
# Assay type: cell-based, human
# measurementContext: Homo sapiens, inhibition of cell proliferation, 72 h
pEC50: −log10 of the molar value.

COc1ccc(S(=O)(=O)Nc2cc(-c3ccsc3C#N)ccc2C)cc1 [Example 62]: > 6.30

I'm curious: which pEC50 was measured for CCOc1ccc(-c2ccc(C)c(NS(=O)(=O)c3ccc(C)cc3)c2)cn1 [Example 37] tested on MCF7 cells?
5.00 to 6.00

Lookup: pEC50 / MCF7 cells / COc1ccc(S(=O)(=O)Nc2cc(-c3ccnc(C#N)c3)ccc2C)cc1 [Example 75]
6.00 to 6.30

Short answer please: pEC50, MCF7 cells, entry COc1ccc(S(=O)(=O)Nc2cc(-c3cnco3)ccc2C)cc1 [Example 20]
> 6.30

Which pEC50 is reported with MCF7 cells for this entry: Cc1ccc(S(=O)(=O)Nc2cc(-c3cncc(C#N)c3)ccc2C)cc1 [Example 34] ?
> 6.30

Recorded pEC50 for CC(=O)c1cccc(-c2ccc(C)c(NS(=O)(=O)c3ccc(C)cc3)c2)n1 [Example 42] with MCF7 cells, please?
6.00 to 6.30
